Reference source for all entries: paper PMC11242173

Give SI (ratio of CC50 to EC50) for every item shown.
Test system: hCoV-OC43
Test: Focus forming reduction assay (FFRA), hCoV-OC43 in HCT-8 cells
Details: hCoV-OC43, HCT-8 cells

// query SI (ratio of CC50 to EC50) value for entry Oc1cc(O)c2c(c1)OC1(c3ccc(O)c(O)c3)Oc3cc(O)c4c(c3C2C1O)OC(c1ccc(O)c(O)c1)C(O)C4 (centres unmarked)
>97.56

// query SI (ratio of CC50 to EC50) value for entry `Oc1cc(O)c2c(c1)O[C@H](c1ccc(O)c(O)c1)[C@@H](O)[C@@H]2c1c(O)cc(O)c2c1O[C@H](c1ccc(O)c(O)c1)[C@@H](O)C2`
>2.96

// query SI (ratio of CC50 to EC50) value for entry `Oc1cc(O)c2c(c1)O[C@@]1(c3ccc(O)c(O)c3)Oc3cc(O)c4c(c3[C@@H]2[C@H]1O)O[C@H](c1ccc(O)c(O)c1)[C@H](O)C4`
>60.79

// query SI (ratio of CC50 to EC50) value for entry `Oc1cc(O)c2c(c1)O[C@H](c1ccc(O)c(O)c1)[C@H](O)[C@H]2c1c(O)cc(O)c2c1O[C@H](c1ccc(O)c(O)c1)[C@H](O)C2`
>2.81

// query SI (ratio of CC50 to EC50) value for entry `Oc1cc(O)c2c(c1)O[C@H](c1ccc(O)c(O)c1)[C@H](O)[C@H]2c1c(O)cc(O)c2c1O[C@H](c1ccc(O)c(O)c1)[C@@H](O)C2`
>2.39
